tested on: PPARg DBDmut IVT, anti-PPARg (DBD mutation: PPARg1 K132A/R137A, NR concentration 270 nM); assay: PBM binding z-score (relative to random genomic background probes); higher = stronger binding; sequences stand for … in GC…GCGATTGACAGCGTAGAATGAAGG
Would you mind sorting the entries by PBM binding z-score according to these classes? small value = under 0.2, mid value = from 0.2 up to 0.8, large value = 0.8 and over

>>> class("TTAGCAAGGTGAAGGTCGTTGATCCCTCTGTAGA")
"small value"
>>> class("CCTACTGTGCCACGAAAGGTCATTGATTCAGTGA")
"mid value"
>>> class("TATACAGGGTCAAAGGCCAGGGTACGAATGTCGA")
"large value"
>>> class("CGTCCAAGGTCTTAGGAGGTCAGTGAAGACAGAT")
"small value"
>>> class("CCTGCTAGGGCATGGTCAGCTAATCTACAGTATG")
"small value"
>>> class("CGTCAAAGTTCTACTAAGGTAACGTAAAGCACGC")
"large value"
>>> class("TCATAAAGGTAAAAGGTGAAAGTCGGTGTGGTAA")
"large value"
>>> class("TAGCCTAGGTCAGATCGGGCCAGTATGCGCTATA")
"small value"
>>> class("ATACCAGGGTGATCGTGAGGTCGTTGATACTAAC")
"small value"
>>> class("CAAACTAGGTCAAGCGGTCAAAGTCCGCTTCCCG")
"large value"
>>> class("TTACCTAGGTGAGCTGAGGTCGTTGATCCAACTC")
"mid value"
>>> class("TAGCCTAGGTCATTCAGGGGCCAGTAAAGAAAGC")
"mid value"
>>> class("GGAACGAGGGCAAAGTTGATAGCCTCTGTCGACG")
"small value"
>>> class("CTATCAAGGTGAACAAGGTCGTTGATTACTATTC")
"mid value"
>>> class("TCATATAGGTAAATGTTAGGTGAAAGTCCGATCT")
"large value"
>>> class("GGAACGAGGGCAAAGTTGATAGCTTCTGTCGACG")
"small value"
>>> class("CCTTACGGGTCAATGTTATAGCACGGGTGGTACG")
"mid value"
>>> class("TCTTGTAGATCAATAGAGGTGAAGAAAGTGCGCT")
"large value"
>>> class("TCATATAGGTAAAGGTGAAGGTCGAACGATATGA")
"large value"
>>> class("TCTATTAGTTGGAGGGCAACCGACGAGTCCGTTT")
"small value"
>>> class("CTTACTGGGCCACGAAAGGTCATTGATTCAGTGA")
"mid value"
>>> class("GCTAGTTGTTCAGTAAAAGGTCACACACCGGTCG")
"small value"
>>> class("TCTTGTCGATCAAAGGTTAAGAAAGCCGAAGCCT")
"mid value"
>>> class("CCGGACAGGTGAAAGGTAACTCAGTCTGGTACGC")
"small value"
>>> class("CGTCCAAGGTCAGCAGGTCAGTGACAGCGACGTG")
"small value"
>>> class("CCTATTAGTTGACCATAAGGGCATCCGAAGCTCG")
"mid value"
>>> class("TCTCTGAGGACACGAAGGTCAGAGCTTTCCAGAG")
"small value"
>>> class("AGTCAAAGTTCTGGACGAGGTAACGTAAAGCACG")
"small value"
>>> class("CGAACTAGGTCAAGGACAGTGGATCTCCGCACGC")
"mid value"
>>> class("GCCTACGGGTCAAAGGTTATAGCATGAATAGAAT")
"mid value"
>>> class("CCTAGTCGGTCAGGAGGTCACACACCGGATATGA")
"mid value"
>>> class("ATCGAAAGGTAGACGAGGTGAGTATACACCGTTT")
"mid value"
>>> class("CGTCCAAGGTCAGAGAGGTCAGGGAATGCCGAGT")
"mid value"
>>> class("TCTATTTGGTCAAAGGTCACACACTCGAAATGCG")
"large value"
>>> class("CGAATTAGGTCATTGACAGGACAGTGAATAGTAA")
"large value"
>>> class("CGTCAAAGTTCAACTCAGGTAACGTAAAGCACGC")
"large value"
>>> class("TTACCAAGGTGAAAGGTAGTTGATGCACGCCTTG")
"small value"
>>> class("TCAGACAGGTGAAGATAACTCAGGTACGCAGTCG")
"mid value"
>>> class("ACTATTAGTTGAGACGAGGGGAACCGATAGGTTG")
"large value"
>>> class("GCATATAGGTAAGACAAGGTGAAAGTCCGATTGT")
"mid value"
>>> class("CTACCAAGGTGAACAAGGTCGTTGAATACTATTC")
"mid value"
>>> class("CAAACTAGGTCACAGAGGTCAAAGTCCGTGCGTA")
"large value"
>>> class("CAAACTAGGTCACGAAAGGTCAAACTCGAATGAC")
"large value"
>>> class("GCTAGTTGGTCAGTAAAAGGTCGCACACCGGTCG")
"small value"
>>> class("ACTTACGGGTGAACGAGGTTATAGCACGCGTATA")
"large value"
>>> class("GGAACGAGGGCAAGTTGACAGCAGAGTTTGATGG")
"small value"
>>> class("CGAACTAGGTCATTGACAGGACAGAGAATAGTAA")
"large value"
>>> class("GCTAGCGGGCCATTTGGGTCACTCAATGACGGGC")
"small value"
>>> class("TCGTGTAGGTTAGGGGCATTCAGAATGGCGTCGA")
"large value"

---

Listed sequences paired with reported PBM binding z-score
system: RARa:RXR (NR concentration 270 nM, RXRa partner concentration 90 nM); assay: PBM binding z-score (relative to random genomic background probes); higher = stronger binding; sequences stand for … in GC…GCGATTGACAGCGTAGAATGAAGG
recorded-endpoint: PBM binding z-score

>>> numeric_value("TGAATGAGGTTATAAAATCAGGGAACGTTGCAAA")
0.96
>>> numeric_value("TCATATACGTAATACAGGTGAAAGTCGGCATCTA")
0.982
>>> numeric_value("CCGACTGGGGCATAAGGTTACCTTAAGCCAGCCC")
1.22
>>> numeric_value("CCTGCTAGGTTATGGTCAGCTAATCTACAGTATG")
-0.233
>>> numeric_value("CAGCCTAGGTCAGTGCCAGTATAGGAGGAACGTT")
0.516
>>> numeric_value("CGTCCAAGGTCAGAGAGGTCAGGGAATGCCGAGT")
5.44

---

test system: LXRa:RXRa (NR concentration 270 nM, RXRa partner concentration 90 nM); test: PBM binding z-score (relative to random genomic background probes); higher = stronger binding; sequences stand for … in GC…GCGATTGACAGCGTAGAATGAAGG
Listed sequences paired with reported PBM binding z-score
recorded-endpoint: PBM binding z-score

>>> numeric_value("TCTATTACTTGATTAGGGCAACCGAAACAGCGGA")
0.881
>>> numeric_value("ACTCGCAGGCCAAGGGTCACTCAAGATTAGTCCG")
3.23
>>> numeric_value("CGAACTAGGTCATCCAGGACTGTGAATACATTGA")
2.4
>>> numeric_value("CCTACTGGTCCATCAGGTCATTGATATCAACGTT")
1.8
>>> numeric_value("TAGCCTAGGTCATGCGGGCCAGTAAAGTGTCGGC")
3.17
>>> numeric_value("CGAACGAGGGCATGAGTCGATAGCAAATGCCGAT")
0.268

---

Listed sequences paired with reported PBM binding z-score
test system: RARb:RXRa (NR concentration 270 nM, RXRa partner concentration 90 nM); assay: PBM binding z-score (relative to random genomic background probes); higher = stronger binding; sequences stand for … in GC…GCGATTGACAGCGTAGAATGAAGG
recorded-endpoint: PBM binding z-score

>>> numeric_value("TAGCCTAGGTCATGCGGGCCATTATAGTGTCGGC")
3.69
>>> numeric_value("ATACCAAGGTGATCGTGAGGTCGTTGGTACTAAC")
1.43
>>> numeric_value("TTACCAAGGTGAAGGTCGTTGAACCCTCTGTAGA")
2.4
>>> numeric_value("CGTTACGGGTCACGAGGTTATAGCACGACGAGCG")
4.56
>>> numeric_value("TCGAGTAGGTTACCAATGGGGCATTTAGCTTTCT")
0.686
>>> numeric_value("ACTCGAAGGACAAAGGTCAGAGCTACGCCAGTGA")
4.7
>>> numeric_value("AGAACGAGGGCAATGAGTTGAAAGCACGGGTGGC")
2.03
>>> numeric_value("CTTCCAAGGTCAGAGAGGTCAGTGAATGCCGAGT")
5.27
>>> numeric_value("TCGAGTAGGTTACCAATTGGGCATTCAGCTTTCT")
0.606
>>> numeric_value("AGAATCAGGTTACCAAAGATCAGGGAAACGCTTG")
1.08
>>> numeric_value("ACTCGGAGGACAAAAGTCAGAGCTACGCCAGTGA")
0.928
>>> numeric_value("TCTCGGAGGACCCGAAGGTCAGAGCTTTCCAGAG")
2.35

Cited source: the supplement of paper PMC6555819
